Target: Progesterone Receptor (Homo sapiens, UniProt P06401)
Construct: expressed in transfected cells; host or cells: CV-1 cells transduced with PRb-BacMam and MMTV-BacMam
Sequence (P06401 whole entry, species assumed): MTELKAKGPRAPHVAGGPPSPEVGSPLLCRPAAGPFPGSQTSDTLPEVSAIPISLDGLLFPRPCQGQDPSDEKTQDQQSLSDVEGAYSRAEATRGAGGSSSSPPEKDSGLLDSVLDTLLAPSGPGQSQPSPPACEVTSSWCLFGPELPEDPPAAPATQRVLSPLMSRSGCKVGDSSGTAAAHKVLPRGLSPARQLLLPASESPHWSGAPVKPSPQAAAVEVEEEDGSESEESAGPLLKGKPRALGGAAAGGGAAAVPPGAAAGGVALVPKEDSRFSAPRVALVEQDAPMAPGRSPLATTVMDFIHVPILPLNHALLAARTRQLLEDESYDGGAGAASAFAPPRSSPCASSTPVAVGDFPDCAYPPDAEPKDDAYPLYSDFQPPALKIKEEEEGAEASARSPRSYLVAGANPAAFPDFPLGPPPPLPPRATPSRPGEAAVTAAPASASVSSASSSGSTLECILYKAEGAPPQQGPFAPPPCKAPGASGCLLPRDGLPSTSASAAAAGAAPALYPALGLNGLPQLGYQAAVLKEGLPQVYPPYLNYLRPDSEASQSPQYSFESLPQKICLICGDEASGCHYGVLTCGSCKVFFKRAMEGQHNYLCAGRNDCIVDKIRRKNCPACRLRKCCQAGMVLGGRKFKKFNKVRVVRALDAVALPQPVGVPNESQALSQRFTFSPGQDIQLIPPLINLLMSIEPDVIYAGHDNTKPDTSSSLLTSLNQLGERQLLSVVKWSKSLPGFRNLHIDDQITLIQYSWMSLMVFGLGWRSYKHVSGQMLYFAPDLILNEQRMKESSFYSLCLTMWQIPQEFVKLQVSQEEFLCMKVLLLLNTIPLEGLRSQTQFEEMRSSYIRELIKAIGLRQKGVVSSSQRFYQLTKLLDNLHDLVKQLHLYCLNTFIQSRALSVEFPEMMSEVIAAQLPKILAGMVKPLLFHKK
Assay: Assay for Progesterone Receptor Agonist Activity (CV-1 cells, PRb-BacMam, MMTV-BacMam)
Assay type: cell-based
Details: at least once in this assay, read-out: progesterone receptor agonist pEC50 (converted)
Experimental: A T225 flask of CV-1 cells at a density of 80% confluency was washed with PBS, detached from the flask using 0.25% trypsin and counted using a Sysmex KX-21N. Cells were diluted in DMEM containing 10% Hyclone, 2 mM […] and 1% Pen/Strep at 140 cells/μl and transduced with 10% PRb-BacMam and 10% MMTV-BacMam. […] Plates were incubated in the dark for 10 min before reading them on a Viewlux reader. […]
measurement_label: EC50

Using known records, supply EC50 for Nc1c(C(=O)NCC(O)(CN(CCF)C(=O)c2ccccc2)C(F)(F)F)cnn1-c1ccc(F)cc1 (single isomer, unassigned) [Example 1 Enantiomer 1]
> 1000 nM

Using known records, supply EC50 for CCN(CC(O)(CNC(=O)c1cnn(-c2ccccc2)c1N)C(F)(F)F)C(=O)c1ccccc1F (single isomer, unassigned) [Example 45 Enantiomer 1]
> 1000 nM

Using known records, supply EC50 for CCN(CC(O)(CNC(=O)c1cnn(-c2ccc(F)cc2)c1N)C(F)(F)F)C(=O)c1ccccc1Cl (single isomer, unassigned) [Example 16 Enantiomer 1]
> 1000 nM

###

Target: GR (Homo sapiens, UniProt P04150)
Construct: endogenous in cells; host or cells: A549 (human lung carcinoma, ECACC No. 86012804), stably transfected with reporter plasmids only
Sequence (P04150 whole entry): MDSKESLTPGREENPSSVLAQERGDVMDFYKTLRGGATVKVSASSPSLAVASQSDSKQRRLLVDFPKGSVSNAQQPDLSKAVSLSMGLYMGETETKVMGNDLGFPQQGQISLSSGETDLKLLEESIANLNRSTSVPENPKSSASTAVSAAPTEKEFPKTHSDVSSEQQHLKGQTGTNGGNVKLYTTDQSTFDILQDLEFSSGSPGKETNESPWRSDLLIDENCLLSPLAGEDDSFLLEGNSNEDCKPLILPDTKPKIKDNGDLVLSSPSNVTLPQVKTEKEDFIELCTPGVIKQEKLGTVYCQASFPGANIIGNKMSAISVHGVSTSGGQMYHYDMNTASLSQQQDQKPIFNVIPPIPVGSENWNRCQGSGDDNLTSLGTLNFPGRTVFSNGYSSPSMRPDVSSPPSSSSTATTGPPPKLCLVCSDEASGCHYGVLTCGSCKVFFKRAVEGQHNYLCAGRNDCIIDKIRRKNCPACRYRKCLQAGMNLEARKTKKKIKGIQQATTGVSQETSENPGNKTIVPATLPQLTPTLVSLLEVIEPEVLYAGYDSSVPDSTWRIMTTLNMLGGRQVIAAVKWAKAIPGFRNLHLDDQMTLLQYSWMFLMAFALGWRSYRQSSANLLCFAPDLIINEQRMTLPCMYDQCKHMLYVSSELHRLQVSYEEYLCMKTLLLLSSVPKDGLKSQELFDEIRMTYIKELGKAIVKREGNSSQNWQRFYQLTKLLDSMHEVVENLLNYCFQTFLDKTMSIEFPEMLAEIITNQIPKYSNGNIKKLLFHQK
Assay: GR Functional Assay - NFκB Assay (A549 SPAP cells, TNFα stimulated)
Type: cell-based
Conditions: at least once; examples listed as agonists in NFkB and MMTV assays; read-out: potency pIC50 in the NFKB assay (converted)
measurement_label: IC50

compound: CCN(CC(O)(CNC(=O)c1cnn(-c2ccccc2)c1N)C(F)(F)F)C(=O)c1ccccc1Cl (racemic) [Example 46 (racemic)]
result: < 316 nM

Using known records, supply IC50 for CCN(CC(O)(CNC(=O)c1cnn(-c2ccc(F)cc2)c1N)C(F)(F)F)C(=O)c1ccccc1OC(F)F (racemic) [Example 12 (racemic)]
< 316 nM

Using known records, supply IC50 for CCN(CC(O)(CNC(=O)c1cnn(-c2ccc(F)cc2)c1N)C(F)(F)F)C(=O)c1cccc(F)c1F (single isomer, unassigned) [Example 5 Enantiomer 1]
< 316 nM

Source: patent US20100035926A1
